# system-name: human caspase-9 (Homo sapiens, UniProt P55211)
# Sequence (P55211 1-315 limits assumed): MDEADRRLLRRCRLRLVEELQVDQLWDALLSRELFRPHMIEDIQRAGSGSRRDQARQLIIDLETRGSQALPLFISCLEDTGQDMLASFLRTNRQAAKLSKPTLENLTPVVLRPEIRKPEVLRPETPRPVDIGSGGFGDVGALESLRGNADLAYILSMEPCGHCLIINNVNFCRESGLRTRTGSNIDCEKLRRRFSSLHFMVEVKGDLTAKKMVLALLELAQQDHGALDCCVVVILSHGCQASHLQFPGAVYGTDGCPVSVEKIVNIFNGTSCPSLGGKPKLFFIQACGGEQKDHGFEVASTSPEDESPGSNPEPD
# Sequence (P55211 331-416 limits assumed): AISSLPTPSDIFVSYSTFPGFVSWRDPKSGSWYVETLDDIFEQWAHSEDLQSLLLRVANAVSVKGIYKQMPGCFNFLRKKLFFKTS
# assay-text: tetrapeptide-ACC substrate cleavage kinetics
# Assay type: biochemical
# test-context: Ac-P4-P3-P2-Asp-ACC substrate, 0.05-500 μM, 20-150 nM enzyme, 37°C, triplicate
// NB: equality with 300 M⁻¹ s⁻¹ counts as Condition not met; only kcat/KM caspase-9 strictly below is Condition met

Does Trp-Gln-Val-Asp have kcat/KM caspase-9 strictly under 300 M⁻¹ s⁻¹?
Condition met

Does Trp-Lys-Gln-Asp have kcat/KM caspase-9 strictly under 300 M⁻¹ s⁻¹?
Condition met

Does Phe-Leu-Thr-Asp have kcat/KM caspase-9 strictly under 300 M⁻¹ s⁻¹?
Condition not met

Does Phe-Glu-Ala-Asp have kcat/KM caspase-9 strictly under 300 M⁻¹ s⁻¹?
Condition not met

Does Asp-Glu-Val-Asp have kcat/KM caspase-9 strictly under 300 M⁻¹ s⁻¹?
Condition met

Does Tyr-Lys-Ala-Asp have kcat/KM caspase-9 strictly under 300 M⁻¹ s⁻¹?
Condition met

Does Tyr-Thr-Ile-Asp have kcat/KM caspase-9 strictly under 300 M⁻¹ s⁻¹?
Condition met

Does Leu-Glu-Ser-Asp have kcat/KM caspase-9 strictly under 300 M⁻¹ s⁻¹?
Condition not met

Does Tyr-Lys-Met-Asp have kcat/KM caspase-9 strictly under 300 M⁻¹ s⁻¹?
Condition met

Does Trp-Gln-Pro-Asp have kcat/KM caspase-9 strictly under 300 M⁻¹ s⁻¹?
Condition met

Does Tyr-Gln-Pro-Asp have kcat/KM caspase-9 strictly under 300 M⁻¹ s⁻¹?
Condition not met

Does Tyr-Glu-Lys-Asp have kcat/KM caspase-9 strictly under 300 M⁻¹ s⁻¹?
Condition met

====

# system-name: human caspase-5 (Homo sapiens, UniProt P51878)
# Sequence (P51878 137-327 limits assumed): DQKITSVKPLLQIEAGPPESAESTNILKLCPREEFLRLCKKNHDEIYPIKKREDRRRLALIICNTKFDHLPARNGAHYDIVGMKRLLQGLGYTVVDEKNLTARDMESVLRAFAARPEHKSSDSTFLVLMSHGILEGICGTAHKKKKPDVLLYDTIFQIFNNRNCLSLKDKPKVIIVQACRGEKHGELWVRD
# Sequence (P51878 347-434 limits assumed): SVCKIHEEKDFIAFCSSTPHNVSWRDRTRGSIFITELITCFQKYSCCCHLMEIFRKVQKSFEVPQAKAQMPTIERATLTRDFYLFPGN
# assay-text: tetrapeptide-ACC substrate cleavage kinetics
# Assay type: biochemical
# test-context: Ac-P4-P3-P2-Asp-ACC substrate, 0.05-500 μM, 20-250 nM enzyme, 37°C, triplicate
Assign satisfied whenever kcat/KM caspase-5 does not fall below 600 M⁻¹ s⁻¹; assign not satisfied whenever it does.

Quick check: does Val-Gly-His-Asp have kcat/KM caspase-5 greater than or equal to 600 M⁻¹ s⁻¹?
not satisfied

Quick check: does Tyr-Thr-Ile-Asp have kcat/KM caspase-5 greater than or equal to 600 M⁻¹ s⁻¹?
satisfied

Quick check: does Asp-Glu-Val-Asp have kcat/KM caspase-5 greater than or equal to 600 M⁻¹ s⁻¹?
not satisfied

Quick check: does Trp-Lys-Gln-Asp have kcat/KM caspase-5 greater than or equal to 600 M⁻¹ s⁻¹?
not satisfied

Quick check: does Pro-Met-His-Asp have kcat/KM caspase-5 greater than or equal to 600 M⁻¹ s⁻¹?
not satisfied

Quick check: does Tyr-Lys-Met-Asp have kcat/KM caspase-5 greater than or equal to 600 M⁻¹ s⁻¹?
not satisfied

Quick check: does Val-Trp-His-Asp have kcat/KM caspase-5 greater than or equal to 600 M⁻¹ s⁻¹?
not satisfied

Quick check: does Tyr-Lys-Ala-Asp have kcat/KM caspase-5 greater than or equal to 600 M⁻¹ s⁻¹?
not satisfied

Quick check: does Leu-Glu-Ser-Asp have kcat/KM caspase-5 greater than or equal to 600 M⁻¹ s⁻¹?
satisfied

These entries and their values trace back to paper doi:10.1101/2025.02.11.637513v1.
